PROTOCOL TEXT: physchem
TEST PARAMETERS: cell-culture medium
REPORTED METRIC: half-life (h)
Give the value, in units of h, as a plain number.

Query string: Find the recorded half-life belonging to COCCOc1cc2ncnc(Nc3cccc(OS(=O)(=O)F)c3)c2cc1OCCOC and report it.
Result string: 24

###

PROTOCOL TEXT: Volume of distribution at steady state in Sprague-Dawley rat at 2 mg/kg, iv measured after 24 hrs by LC-MS/MS analysis
Type: ADME, organism-based
TEST PARAMETERS: in vivo, read-out: Vdss
REPORTED METRIC: Vd (L/kg)
Give the value, in units of L/kg, as a plain number.

Query string: Find the recorded Vd belonging to COCCOc1cc2ncnc(Nc3cccc(OS(=O)(=O)F)c3)c2cc1OCCOC and report it.
Result string: 1.22

###

PROTOCOL TEXT: Apparent volume of distribution in Sprague-Dawley rat at 2 mg/kg, iv measured after 24 hrs by LC-MS/MS analysis
Format: ADME, organism-based
TEST PARAMETERS: in vivo, read-out: Vz
REPORTED METRIC: Vd
Give the value; after it, write the unit.

Query string: Find the recorded Vd belonging to COCCOc1cc2ncnc(Nc3cccc(OS(=O)(=O)F)c3)c2cc1OCCOC and report it.
Result string: 1.4 L/kg

###

PROTOCOL TEXT: in vitro
TEST PARAMETERS: mouse, mouse liver microsomes
REPORTED METRIC: half-life at 1 h (min)
Give the value, in units of min, as a plain number.

Query string: Find the recorded half-life at 1 h belonging to COCCOc1cc2ncnc(Nc3cccc(OS(=O)(=O)F)c3)c2cc1OCCOC and report it.
Result string: 29.6

###

PROTOCOL TEXT: Oral bioavailability in Sprague-Dawley rat at 5 mg/kg measured after 24 hrs by LC-MS/MS analysis
Assay type: ADME, organism-based
TEST PARAMETERS: in vivo
REPORTED METRIC: bioavailability (%)
Give the value, in units of %, as a plain number.

Query string: Find the recorded bioavailability belonging to COCCOc1cc2ncnc(Nc3cccc(OS(=O)(=O)F)c3)c2cc1OCCOC and report it.
Result string: 32

###

PROTOCOL TEXT: Clearance in Sprague-Dawley rat at 2 mg/kg, iv measured after 24 hrs by LC-MS/MS analysis
Format: ADME, organism-based
TEST PARAMETERS: in vivo
REPORTED METRIC: clearance (mL/min/kg)
Give the value, in units of mL/min/kg, as a plain number.

Query string: Find the recorded clearance belonging to COCCOc1cc2ncnc(Nc3cccc(OS(=O)(=O)F)c3)c2cc1OCCOC and report it.
Result string: 17.4

###

PROTOCOL TEXT: AUC (0 to infinity) in Sprague-Dawley rat at 2 mg/kg, iv measured after 24 hrs by LC-MS/MS analysis
Assay type: ADME, organism-based
TEST PARAMETERS: in vivo
REPORTED METRIC: AUC(0-inf) (ng·h/mL)
Give the value, in units of ng·h/mL, as a plain number.

Query string: Find the recorded AUC(0-inf) belonging to COCCOc1cc2ncnc(Nc3cccc(OS(=O)(=O)F)c3)c2cc1OCCOC and report it.
Result string: 1920

###

PROTOCOL TEXT: Half-life in Sprague-Dawley rat at 2 mg/kg, iv measured after 24 hrs by LC-MS/MS analysis
Type: ADME, organism-based
TEST PARAMETERS: in vivo
REPORTED METRIC: half-life

Query string: Find the recorded half-life belonging to COCCOc1cc2ncnc(Nc3cccc(OS(=O)(=O)F)c3)c2cc1OCCOC and report it.
Result string: 55.8 min

###

PROTOCOL TEXT: physchem
TEST PARAMETERS: PBS
REPORTED METRIC: half-life

Query string: Find the recorded half-life belonging to COCCOc1cc2ncnc(Nc3cccc(OS(=O)(=O)F)c3)c2cc1OCCOC and report it.
Result string: > 12 h

###

PROTOCOL TEXT: in vitro
TEST PARAMETERS: dog, MDCK-MDR1
REPORTED METRIC: recovery at 10 µM (%)
Give the value, in units of %, as a plain number.

COMPOUND: COCCOc1cc2ncnc(Nc3cccc(OS(=O)(=O)F)c3)c2cc1OCCOC
recovery at 10 µM, %: 86.8

Query string: Find the recorded recovery at 10 µM belonging to C[C@H]1O[C@@H](O[C@H]2[C@@H](O)C[C@H](O[C@H]3[C@@H](O)C[C@H](O[C@H]4CC[C@@]5(C)[C@H](CC[C@@H]6[C@@H]5C[C@@H](O)[C@]5(C)[C@@H](C7=CC(=O)OC7)CC[C@]65O)C4)O[C@@H]3C)O[C@@H]2C)C[C@H](O)[C@@H]1O [DIGOXIN] and report it.
Result string: 105

###

PROTOCOL TEXT: Half-life in Sprague-Dawley rat at 5 mg/kg, po measured after 24 hrs by LC-MS/MS analysis
Format: ADME, organism-based
TEST PARAMETERS: in vivo
REPORTED METRIC: half-life (min)
Give the value, in units of min, as a plain number.

Query string: Find the recorded half-life belonging to COCCOc1cc2ncnc(Nc3cccc(OS(=O)(=O)F)c3)c2cc1OCCOC and report it.
Result string: 48.6

###

PROTOCOL TEXT: in vitro
TEST PARAMETERS: dog, MDCK-MDR1
REPORTED METRIC: Papp A→B at 10 µM (×10⁻⁶ cm/s)
Give the value, in units of ×10⁻⁶ cm/s, as a plain number.

Query string: Find the recorded Papp A→B at 10 µM belonging to COCCOc1cc2ncnc(Nc3cccc(OS(=O)(=O)F)c3)c2cc1OCCOC and report it.
Result string: 1.9

###

PROTOCOL TEXT: AUC (0 to infinity) in Sprague-Dawley rat at 5 mg/kg, po measured after 24 hrs by LC-MS/MS analysis
Format: ADME, organism-based
TEST PARAMETERS: in vivo
REPORTED METRIC: AUC(0-inf) (ng·h/mL)
Give the value, in units of ng·h/mL, as a plain number.

Query string: Find the recorded AUC(0-inf) belonging to COCCOc1cc2ncnc(Nc3cccc(OS(=O)(=O)F)c3)c2cc1OCCOC and report it.
Result string: 1540

###

PROTOCOL TEXT: MRT in Sprague-Dawley rat at 2 mg/kg, iv measured after 24 hrs by LC-MS/MS analysis
Assay type: ADME, organism-based
TEST PARAMETERS: in vivo
REPORTED METRIC: MRT (h)
Give the value, in units of h, as a plain number.

Query string: Find the recorded MRT belonging to COCCOc1cc2ncnc(Nc3cccc(OS(=O)(=O)F)c3)c2cc1OCCOC and report it.
Result string: 1.16

###

PROTOCOL TEXT: in vitro
TEST PARAMETERS: dog, MDCK-MDR1
REPORTED METRIC: recovery at 10 µM
Give the value; after it, write the unit.

SMILES TEXT: COCCOc1cc2ncnc(Nc3cccc(OS(=O)(=O)F)c3)c2cc1OCCOC
EXPERIMENTAL VALUE: 81.2%

Turning now to a further molecule:
Query string: Find the recorded recovery at 10 µM belonging to C[C@H]1O[C@@H](O[C@H]2[C@@H](O)C[C@H](O[C@H]3[C@@H](O)C[C@H](O[C@H]4CC[C@@]5(C)[C@H](CC[C@@H]6[C@@H]5C[C@@H](O)[C@]5(C)[C@@H](C7=CC(=O)OC7)CC[C@]65O)C4)O[C@@H]3C)O[C@@H]2C)C[C@H](O)[C@@H]1O and report it.
Result string: 97.9%

###

PROTOCOL TEXT: Tmax in Sprague-Dawley rat at 5 mg/kg, po measured after 24 hrs by LC-MS/MS analysis
Format: ADME, organism-based
TEST PARAMETERS: in vivo
REPORTED METRIC: Tmax (h)
Give the value, in units of h, as a plain number.

Query string: Find the recorded Tmax belonging to COCCOc1cc2ncnc(Nc3cccc(OS(=O)(=O)F)c3)c2cc1OCCOC and report it.
Result string: 2.33

###

PROTOCOL TEXT: physchem
TEST PARAMETERS: PBS
REPORTED METRIC: half-life

Query string: Find the recorded half-life belonging to COCCOc1cc2ncnc(Nc3cccc(OS(=O)(=O)F)c3)c2cc1OCCOC and report it.
Result string: > 480 min

###

PROTOCOL TEXT: physchem
TEST PARAMETERS: PBS
REPORTED METRIC: half-life

SMILES TEXT: C=CS(=O)(=O)Nc1cccc(Nc2ncnc3cc(OCCOC)c(OCCOC)cc23)c1
half-life: > 24 h

Query string: Find the recorded half-life belonging to COCCOc1cc2ncnc(Nc3cccc(OS(=O)(=O)F)c3)c2cc1OCCOC and report it.
Result string: > 8 h

These measurements were taken from ChEMBL document CHEMBL5625196.
